Biological target: HLA-DRB1*07:01 (Homo sapiens, UniProt P01903+P01911, A100R/A102G/A103Q/D57E/D86V/E43K/F76Y/K127E/L162R/M171V/P40G/Q125H/Q99D/R33Q/R42Y/R54Q/S133A/S66F/T210M/V115G/Y107V/Y59L/Y89S)
Conditions: competitive ELISA; ratio IC50 of peptide / IC50 of reference peptide HA 306–318; lower = higher affinity; ratio 20 or less high, 20–100 moderate; three independent experiments
Criterion: Relative binding affinity of peptide to HLA-DR molecules DRB1*0701 meeting or surpassing 10. Met: true. Not met: false.

Incoming: Decide: Relative binding affinity of peptide to HLA-DR molecules DRB1*0701 of 13: SseB overlapping library peptide, residues 121–140 (DYMAKYGDHGKLDKGGLQAI) [Peptide 13] >= 10?
Outgoing: true

Incoming: Item 17: SseB overlapping library peptide, residues 161–180 (TIQKMSQELNAVLTQLTGLI) [Peptide 17] with Relative binding affinity of peptide to HLA-DR molecules DRB1*0701 of 10 or above?
Outgoing: false

Incoming: Dear colleague, could you confirm whether 5: SseB overlapping library peptide, residues 41–60 (EGYGVLLILLMVIQAIANNK) [Peptide 5] has Relative binding affinity of peptide to HLA-DR molecules DRB1*0701 at or above 10?
Outgoing: true

Incoming: Does the substance 2: SseB overlapping library peptide, residues 11–30 (QNPIVFKNSFGVSNADTGSQ) [Peptide 2] have recorded Relative binding affinity of peptide to HLA-DR molecules DRB1*0701 that is 10 or more?
Outgoing: true

Incoming: Check this substance for Relative binding affinity of peptide to HLA-DR molecules DRB1*0701 at or above 10: AVLTQLTGLISKWGEISSMIAQKTYS [Peptide 18]
Outgoing: true

Incoming: Could you tell me if the measured Relative binding affinity of peptide to HLA-DR molecules DRB1*0701 of 12: SseB overlapping library peptide, residues 111–130 (GILIDGMTIDDYMAKYGDHG) [Peptide 12] reaches 10 or more?
Outgoing: true

Incoming: Identify whether the reported Relative binding affinity of peptide to HLA-DR molecules DRB1*0701 of the following substance is 10 or greater: 4: SseB overlapping library peptide, residues 31–50 (DDLSQQNPFAEGYGVLLILL) [Peptide 4]
Outgoing: false

Incoming: I'd appreciate it if you could say whether 8: SseB overlapping library peptide, residues 71–90 (ARNTQEKSNEMDEVIAKAAK) [Peptide 8] has Relative binding affinity of peptide to HLA-DR molecules DRB1*0701 at least equal to 10.
Outgoing: true

Incoming: hey, is Relative binding affinity of peptide to HLA-DR molecules DRB1*0701 for this one >= 10? 15: SseB overlapping library peptide, residues 141–160 (KAALDNDANRNTDLMSQGQI) [Peptide 15]
Outgoing: true

Incoming: Please check the record MSSGNILWGSQNPIVFKNSF [Peptide 1] and state if its Relative binding affinity of peptide to HLA-DR molecules DRB1*0701 is at or above 10.
Outgoing: false

Incoming: # bool: Relative binding affinity of peptide to HLA-DR molecules DRB1*0701 of 14: SseB overlapping library peptide, residues 131–150 (KLDKGGLQAIKAALDNDANR) [Peptide 14] >= 10
Outgoing: true

Incoming: Dear colleague, could you confirm whether 10: SseB overlapping library peptide, residues 91–110 (GDAKTKEEVPEDVIKYMRDN) [Peptide 10] has Relative binding affinity of peptide to HLA-DR molecules DRB1*0701 at or above 10?
Outgoing: true

Incoming: Entry 16: SseB overlapping library peptide, residues 151–170 (NTDLMSQGQITIQKMSQELN) [Peptide 16] : is its Relative binding affinity of peptide to HLA-DR molecules DRB1*0701 no less than 10?
Outgoing: true

Incoming: Could you tell me if the measured Relative binding affinity of peptide to HLA-DR molecules DRB1*0701 of 11: SseB overlapping library peptide, residues 101–120 (EDVIKYMRDNGILIDGMTID) [Peptide 11] reaches 10 or more?
Outgoing: false

Incoming: Assess whether reported Relative binding affinity of peptide to HLA-DR molecules DRB1*0701 for 9: SseB overlapping library peptide, residues 81–100 (MDEVIAKAAKGDAKTKEEVP) [Peptide 9] sits at 10 or higher.
Outgoing: true

* * *

Target: HLA-DRB1*01:01 (Homo sapiens, UniProt P01903+P01911, A100R/D57E/F55L/F60I/F76Y/I96L/L162R/M171V/P40L/Q125E/R42F/V115G/Y59C)
Settings: competitive ELISA; ratio IC50 of peptide / IC50 of reference peptide HA 306–318; lower = higher affinity; ratio 20 or less high, 20–100 moderate; three independent experiments
observed-property: Relative binding affinity of peptide to HLA-DR molecules DRB1*0101

Field Relative binding affinity of peptide to HLA-DR molecules DRB1*0101 (entry 10: SseB overlapping library peptide, residues 91–110 (GDAKTKEEVPEDVIKYMRDN) [Peptide 10] ) reads > 4149

Documented Relative binding affinity of peptide to HLA-DR molecules DRB1*0101 of MSSGNILWGSQNPIVFKNSF [Peptide 1] : 447

Entry 15: SseB overlapping library peptide, residues 141–160 (KAALDNDANRNTDLMSQGQI) [Peptide 15] ; Relative binding affinity of peptide to HLA-DR molecules DRB1*0101 = > 4149

Notebook: 17: SseB overlapping library peptide, residues 161–180 (TIQKMSQELNAVLTQLTGLI) [Peptide 17] , Relative binding affinity of peptide to HLA-DR molecules DRB1*0101 read as 18

Lab note: 16: SseB overlapping library peptide, residues 151–170 (NTDLMSQGQITIQKMSQELN) [Peptide 16] gave Relative binding affinity of peptide to HLA-DR molecules DRB1*0101 of 964

The substance listed as AVLTQLTGLISKWGEISSMIAQKTYS [Peptide 18] shows Relative binding affinity of peptide to HLA-DR molecules DRB1*0101 equal to 2

The measured Relative binding affinity of peptide to HLA-DR molecules DRB1*0101 associated with 5: SseB overlapping library peptide, residues 41–60 (EGYGVLLILLMVIQAIANNK) [Peptide 5] reads > 4149

Please fill in: Relative binding affinity of peptide to HLA-DR molecules DRB1*0101 reported for 3: SseB overlapping library peptide, residues 21–40 (GVSNADTGSQDDLSQQNPFA) [Peptide 3] = > 4149

// sample 6: SseB overlapping library peptide, residues 51–70 (MVIQAIANNKFIEVQKNAER) [Peptide 6] , its Relative binding affinity of peptide to HLA-DR molecules DRB1*0101 was 235

Relative binding affinity of peptide to HLA-DR molecules DRB1*0101 for 8: SseB overlapping library peptide, residues 71–90 (ARNTQEKSNEMDEVIAKAAK) [Peptide 8] is > 4149

The substance 9: SseB overlapping library peptide, residues 81–100 (MDEVIAKAAKGDAKTKEEVP) [Peptide 9] showed Relative binding affinity of peptide to HLA-DR molecules DRB1*0101 equal to 1508

The substance listed as 2: SseB overlapping library peptide, residues 11–30 (QNPIVFKNSFGVSNADTGSQ) [Peptide 2] has a reported Relative binding affinity of peptide to HLA-DR molecules DRB1*0101 of 300

The substance listed as 12: SseB overlapping library peptide, residues 111–130 (GILIDGMTIDDYMAKYGDHG) [Peptide 12] shows Relative binding affinity of peptide to HLA-DR molecules DRB1*0101 equal to > 4149

* * *

Target: HLA-DRB1*15:02 (Homo sapiens, UniProt P01903+P01911, V115G)
Construct: HLA-DR heterodimers were purified from homozygous Epstein–Barr virus B-lymphoblastoid cell lines; host or cells: homozygous EBV B-lymphoblastoid cell line
Assay: Peptide/HLA-DR binding, competitive ELISA
Details: ratio IC50 of peptide / IC50 of reference peptide TFR 607–620, lower = higher affinity, ratio 20 or less high, 20–100 moderate, three independent experiments
observed-property: Relative binding affinity of peptide to HLA-DR molecules DRB1*1502
Form field (numeric): enter value without unit.

The substance listed as AVLTQLTGLISKWGEISSMIAQKTYS [Peptide 18, SseB overlapping library peptide, residues 171–196] shows Relative binding affinity of peptide to HLA-DR molecules DRB1*1502 equal to 63

The recorded Relative binding affinity of peptide to HLA-DR molecules DRB1*1502 for entry 2: SseB overlapping library peptide, residues 11–30 (QNPIVFKNSFGVSNADTGSQ) [Peptide 2] equals 5

* * *

Molecular target: HLA-DRB1*04:01 (Homo sapiens, UniProt P01903+P01911, A100K/A169T/F76Y/I96L/K127E/L162R/M171V/N62H/P40V/Q125Y/R42H/S133A/S149N/S66Y/V115G/V209L/W38E)
Details: competitive ELISA; ratio IC50 of peptide / IC50 of reference peptide HA 306–318; lower = higher affinity; ratio 20 or less high, 20–100 moderate; three independent experiments
observed-property: Relative binding affinity of peptide to HLA-DR molecules DRB1*0401
Please reply with the value in numeric form only.

Data point: 2: SseB overlapping library peptide, residues 11–30 (QNPIVFKNSFGVSNADTGSQ) [Peptide 2] ; Relative binding affinity of peptide to HLA-DR molecules DRB1*0401 = 9

Item: AVLTQLTGLISKWGEISSMIAQKTYS [Peptide 18] | Relative binding affinity of peptide to HLA-DR molecules DRB1*0401: 2

For reference, reported Relative binding affinity of peptide to HLA-DR molecules DRB1*0401 for 6: SseB overlapping library peptide, residues 51–70 (MVIQAIANNKFIEVQKNAER) [Peptide 6] stands at 6

Measured values drawn from paper PMC4212957 for this set.
